Would you mind telling me the reported GI50 of each entry?
test system: HL-60(TB) leukemia; test: NCI tumour cell line growth inhibition, 48 h

### Prompt What does the data say about its GI50? Entry: COc1cc2c3c(n(CCCNCCNCCCN)c(=O)c2cc1OC)-c1cc2c(cc1C3=O)OCO2
### Response 6110 nM

### Prompt Next compound up: Cc1cc2nc3c4cccc(O)c4n(CCN(C)C)c3nc2cc1C
### Response 1570 nM

### Prompt One more compound: COc1cc(/C=C2\C(=O)Nc3ccccc32)cc(OC)c1OC
### Response 8150 nM

### Prompt Would you mind doing O=[N+]([O-])c1cccc(-c2cc(-c3cc(Br)ccc3O)[nH]n2)c1 as well?
### Response 1150 nM

### Prompt Another compound to look at: CN1C(=O)C(c2c[nH]c3ccccc23)=C(c2c(-c3c[nH]c4ccccc34)[nH]c3ccccc23)C1=O
### Response 2410 nM

====

test system: HOP-92 NSCLC; experiment: NCI tumour cell line growth inhibition, 48 h; in the data active means GI50 below about 0.43 µM; inactive means the rest
Can you answer with just one of these options? YES for active, NO for inactive

### Prompt Hello, I am checking results. What call was entered for C=C(C)[C@@H]1CC[C@]2(C(=O)NCCNCCNCCN)CC[C@]3(C)[C@H](CC[C@@H]4[C@@]5(C)CCC(=O)C(C)(C)[C@@H]5CC[C@]43C)[C@@H]12 ?
### Response NO

### Prompt What about Cc1ccc(/C(=C/C=C(C#N)C#N)Sc2ccccn2)cc1 ?
### Response NO

### Prompt Follow-up entry: CCC[CH2][Sn]1([CH2]CCC)[O]C(=O)CN=Cc2ccccc2[O]1
### Response YES

====

tested on: HCT-116 colon; assay: NCI tumour cell line growth inhibition, 48 h; in the data active means GI50 below about 0.43 µM; inactive means the rest
Parameter call: string, one of yes for active, no for inactive

### Prompt Answer briefly: the call reported for CCOC(=O)C1=C(c2ccccc2)N(c2ccc(OC)cc2)[C@]2(C#N)C(O)=C(Cl)C(Cl)=C(O)[C@]12C#N in this assay.
### Response no

### Prompt Repeat for the following compound: O=C1CC/C(=C\COc2ccc3ccc(=O)oc3c2)O1
### Response no

### Prompt Next: CCC[CH2][Sn]1([CH2]CCC)[O]C(=O)CN=Cc2ccccc2[O]1
### Response no

### Prompt Entry COc1ccc2c(c1)[C@@]1(C)CCC3c4ccc(O)cc4CCC3C1C2 (some centres undefined) please
### Response no

### Prompt # repeat for CC1(C)Cc2c(Br)c(Br)c(Br)c(OCC(O)CN3CCOCC3)c2O1 (centres undefined)
### Response no

### Prompt Thanks! And Cc1cc2nc3c4cccc(O)c4n(CCN(C)C)c3nc2cc1C ?
### Response no

### Prompt Now consider CO/N=C(/COc1c(-c2ccccc2)oc2ccccc2c1=O)c1ccc(F)cc1 .
### Response no

### Prompt Okay, and COc1cc(-c2n/c(=C\c3c(O)[nH]c4ccccc34)cc3c2=Nc2ccccc2-3)cc(OC)c1OC ?
### Response yes

### Prompt Also need Cc1ccc(F)cc1NC(=O)c1cc(Cl)ccc1Nc1ccccc1 , thanks.
### Response no

### Prompt Can you handle C=C(C)[C@@H]1CC[C@]2(C(=O)NCCNCCNCCN)CC[C@]3(C)[C@H](CC[C@@H]4[C@@]5(C)CCC(=O)C(C)(C)[C@@H]5CC[C@]43C)[C@@H]12 next?
### Response no

### Prompt Would you kindly repeat that for O=C1OCC2=C1C(c1cccc(C(F)(F)F)c1)c1cc3c(cc1N2CCO)CCC3 (centres undefined) ?
### Response yes

### Prompt Can you check Oc1ccc(CN(Cc2ccc(C(F)(F)F)cc2)Cc2ccc(O)c3ncccc23)c2cccnc12 next?
### Response yes

### Prompt Continue with C=C1C(=O)O[C@H]2C[C@@H]1CCC1(C)OC1CC/C(C)=C/CC[C@H]2C (some centres undefined)
### Response no

### Prompt Then this compound: COc1ccc(-c2ccccc2)cc1-c1c(Nc2cc(Cl)cc(Cl)c2O)c(=O)c1=O
### Response no

Numbers sourced from PubChem BioAssay (NCI).
